Parameter Ki, tested on UniProtKB P35408, listed per item.
Sequence (P35408 whole entry): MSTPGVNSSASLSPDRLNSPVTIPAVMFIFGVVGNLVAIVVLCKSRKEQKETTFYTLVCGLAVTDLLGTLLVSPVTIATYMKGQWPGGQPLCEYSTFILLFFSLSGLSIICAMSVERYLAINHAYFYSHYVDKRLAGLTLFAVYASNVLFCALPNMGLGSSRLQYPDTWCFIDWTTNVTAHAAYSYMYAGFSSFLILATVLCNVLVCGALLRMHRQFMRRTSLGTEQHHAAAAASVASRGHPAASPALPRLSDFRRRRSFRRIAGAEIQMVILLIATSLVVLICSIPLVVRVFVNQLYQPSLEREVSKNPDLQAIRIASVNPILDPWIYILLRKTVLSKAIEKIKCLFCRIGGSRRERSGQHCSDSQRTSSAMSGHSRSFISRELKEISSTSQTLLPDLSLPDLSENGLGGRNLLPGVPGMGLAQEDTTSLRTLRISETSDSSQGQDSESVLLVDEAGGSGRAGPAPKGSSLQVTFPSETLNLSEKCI

Example results:
- compound: "C/C(=C\\C=C/[C@H]1CCC(=O)N1CCc1ccc(C(=O)O)cc1)c1ccccc1"
  test.target: "UniProtKB P35408"
  measurement.label: "Ki"
  measurement: "29 nM"
- compound: "C/C(=C\\C=C/[C@H]1CCC(=O)N1CCc1ccc(C(=O)O)cc1)CC1CCCC1"
  test.target: "UniProtKB P35408"
  measurement.label: "Ki"
  measurement: "117 nM"

Field: Ki. Fill in for each record below.
1. O=C(O)c1ccc(CCN2C(=O)CC[C@@H]2/C=C\C=C(/c2ccccc2)C(F)(F)F)cc1
2. CC(C)=CCC/C(C)=C/C=C/[C@H]1CCC(=O)N1CCc1ccc(C(=O)O)cc1
3. CCCC/C=C(C)/C=C/[C@H]1CCC(=O)N1CCc1ccc(C(=O)O)cc1
4. C/C(=C\C=C\[C@H]1CCC(=O)N1CCc1ccc(C(=O)O)cc1)C1CC1

1. 69 nM
2. 470 nM
3. 145 nM
4. 165 nM

Entry source: patent US7276531B2
